# measurement target: Metabotropic glutamate receptor 2 (Homo sapiens, UniProt Q14416)
# Sequence (Q14416 whole entry): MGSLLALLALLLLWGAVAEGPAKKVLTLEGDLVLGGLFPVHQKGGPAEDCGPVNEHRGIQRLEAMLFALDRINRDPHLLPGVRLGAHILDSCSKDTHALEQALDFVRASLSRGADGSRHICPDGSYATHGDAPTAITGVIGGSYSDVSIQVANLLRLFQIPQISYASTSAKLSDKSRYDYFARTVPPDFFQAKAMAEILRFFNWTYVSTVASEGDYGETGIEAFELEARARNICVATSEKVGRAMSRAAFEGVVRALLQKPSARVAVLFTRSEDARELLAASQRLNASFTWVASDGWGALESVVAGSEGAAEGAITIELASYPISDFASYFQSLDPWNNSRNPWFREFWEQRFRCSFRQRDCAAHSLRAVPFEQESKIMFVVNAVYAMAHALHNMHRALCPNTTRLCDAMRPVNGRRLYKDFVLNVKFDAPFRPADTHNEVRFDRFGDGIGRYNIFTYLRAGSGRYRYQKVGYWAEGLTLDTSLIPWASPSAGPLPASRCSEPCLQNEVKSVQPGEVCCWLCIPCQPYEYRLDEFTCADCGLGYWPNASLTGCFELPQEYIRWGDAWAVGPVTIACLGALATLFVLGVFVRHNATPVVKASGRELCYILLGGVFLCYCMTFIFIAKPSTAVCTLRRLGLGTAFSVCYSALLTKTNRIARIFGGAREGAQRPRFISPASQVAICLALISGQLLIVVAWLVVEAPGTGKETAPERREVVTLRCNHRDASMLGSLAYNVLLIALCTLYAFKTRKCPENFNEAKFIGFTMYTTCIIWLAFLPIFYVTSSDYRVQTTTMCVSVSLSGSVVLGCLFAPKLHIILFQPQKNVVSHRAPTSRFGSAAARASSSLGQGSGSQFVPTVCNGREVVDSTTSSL
# experiment notes: Displacement of [3H]-JNJ46281222 from human metabotropic glutamate receptor 2 expressed in CHOK1 cell membranes after 60 mins by microbeta counting analysis
measure: Ki
Your answer should be a number followed by the unit of measure.

FC(F)(F)c1c(-c2ccc(NC3CCOCC3)c(Cl)c2)ccn2c(CC3CC3)nnc12	5.01 nM
COc1ccc(COc2ccc(-c3ccn4c(CC5CC5)nnc4c3C(F)(F)F)cc2)cn1	8.71 nM
Clc1cc(-c2ccn3c(CC4CC4)nnc3c2Cl)ccc1OC1CCOCC1	22.9 nM
FC(F)(F)c1c(-c2ccc(NC3CC3)c(Cl)c2)ccn2c(CC3CC3)nnc12	2.24 nM
O[C@H]1CC[C@H](Nc2ccc(-c3ccn4c(CC(F)(F)F)nnc4c3Cl)cc2Cl)CC1	6.03 nM

Pending compound:
// fetch Ki given entry Cc1ccc(Oc2ccc(-c3ccn4c(CC5CC5)nnc4c3C(C)C)cc2F)c(C)n1
25.1 nM
